Assay: qHTS of pediatric cancer cell lines to identify multiple opportunities for drug repurposing: Primary screen for Rh18 cells (AID 1347102); also: nearly all actives have a fitted effect of over 65% in size
Conditions: Rh18 rhabdomyosarcoma viability, CellTiter-Glo luminescence, 48 h; series mostly up to 46 µM
Records with an inconclusive call do not appear. The source made the active and inactive calls. Calls follow the shape of the dose curve; as a rule, active = well fitted cell-killing curve with a large enough effect; inconclusive = small, poorly fitted or top-dose-only effect; inactive = flat fitted curve, though single readings scatter.
Bench note: report the call from active, inactive

Fc1ccc(C(c2ccc(F)cc2)N2CCNCC2)cc1; inactive
CCCCCOc1ccccc1/C(=C\SC)n1ccnc1; inactive
C[C@@H]1C[C@H]2[C@@H]3CCC4=CC(=O)C=C[C@]4(C)[C@@]3(F)[C@@H](O)C[C@]2(C)[C@@]1(O)C(=O)COC(=O)c1ccncc1; inactive
CCCCCC1Nc2cc(C(F)(F)F)c(S(N)(=O)=O)cc2S(=O)(=O)N1 (stereo not given); inactive
CCOC(=O)C(=O)c1csc(NC=O)n1; inactive

Given CN(C)CCOC1=Cc2ccccc2Sc2ccc(Cl)cc21 , state the outcome it received in this test.
inactive

Given Oc1ccccc1-c1nnco1 , state the outcome it received in this test.
inactive

Given c1ccc2c(c1)CCc1ccccc1N2 , state the outcome it received in this test.
inactive

Given CO/N=C(/C(=O)N[C@@H]1C(=O)N2C(C(=O)[O-])=C(C[n+]3ccn4ncccc43)CS[C@H]12)c1nsc(N)n1 , state the outcome it received in this test.
inactive

Given C[C@@H](O[C@H]1OCCN(Cc2n[nH]c(=O)[nH]2)[C@H]1c1ccc(F)cc1)c1cc(C(F)(F)F)cc(C(F)(F)F)c1 , state the outcome it received in this test.
active

* * *

Experiment: qHTS assay for small molecule activators of the nuclear factor-kappa B (NF-kB) signaling pathway (AID 651749); also: % of control where 0% means no effect
Conditions: NF-kB-bla ME-180 cells, beta-lactamase FRET ratio, 16 h; hits give high values
Inconclusive results are not listed.
recorded_endpoint: activation (%)
Give bare numbers, in %.

Provide the reported activation of each entry below, same order.
1. OCc1c[nH]c2ccccc12
2. COC(=O)c1c(Cl)c(Cl)c(C(=O)OC)c(Cl)c1Cl
3. O=C(NO)c1ccccc1

[-1.28, 0.623, 0.132]

Provide the reported activation of each entry below, same order.
1. Brc1ccccc1-c1ccccc1
2. C1=CC2C3C=CC(C3)C2C1 (configuration not stated)
3. CCCCCCCCCCCC[N+](C)(C)Cc1ccccc1

1. -0.27
2. -1.05
3. 3.11

Quick one: activation of CN1C(=O)c2ccccc2C1=O ?
0.745

* * *

Molecular target: Peroxisome proliferator-activated receptor delta (Homo sapiens)
Test: qHTS assay for small molecule antagonists of peroxisome proliferator-activated receptor delta signaling (AID 588535)
Conditions: HEK293T PPARd-UAS-bla, beta-lactamase FRET ratio, 18 h; series mostly up to 76.7 µM
Text: NIH Chemical Genomics Center [NCGC] U.S. Environmental Protection Agency [EPA] National Institutes of Environmental Health Sciences [NIEHS] National Toxicology Program [NTP] NCGC Assay Overview The Peroxisome proliferator-activated receptors (PPARs) are lipid-activated transcription factors of the nuclear receptor superfamily with three distinct subtypes namely PPAR alpha, PPAR delta (also called PPAR beta) and PPAR gamma. […]
Results filed as inconclusive are left out. Active and inactive are the calls of the source. The call rests on the fitted dose curve; in most records, active means well fitted inhibition curve with a large enough effect in the signal ratio, with a control signal flat (not every such curve was filed as active); inconclusive means small, poorly fitted or top-dose-only effect, or effect the other way, or a change in a side signal; inactive means no such curve, though single readings can be large or run the other way; the % refers to the signal ratio.
recorded_endpoint: outcome

COc1cc(C=O)ccc1O; inactive
CCCC(=O)c1cc(O)c(O)cc1O; inactive
Cc1ccc(O)cc1; inactive
CCCCC(CC)COC(=O)c1ccccc1C(=O)O (stereo not drawn); inactive

Provide the reported outcome of each entry below, same order.
1. Cc1cc(C(C)(C)C)c(O)c(C(C)(C)C)c1
2. O=C(c1ccccc1)c1ccccc1
3. CC(C)C(C)(C)C(C)(C)C(C)(C)S
4. Cc1ncc(CO)c(CO)c1O

1: inactive; 2: inactive; 3: inactive; 4: inactive

* * *

Experiment: qHTS of pediatric cancer cell lines to identify multiple opportunities for drug repurposing: Primary screen for Rh18 cells (AID 1347102); also: nearly all actives have a fitted effect of over 65% in size
Details: Rh18 rhabdomyosarcoma viability, CellTiter-Glo luminescence, 48 h; series mostly up to 46 µM
Records with an inconclusive call do not appear. Activity calls are given as the source filed them. Calls come from the whole dose curve; as a rule, active = well fitted cell-killing curve with a large enough effect; inconclusive = small, poorly fitted or top-dose-only effect; inactive = flat fitted curve, though single readings scatter.
recorded_endpoint: outcome

Known results for molecules:
CCn1ccc(NS(=O)(=O)c2ccc(N)cc2)nc1=O; inactive
O=C(CCC1CCN(Cc2ccccc2)CC1)c1ccc2c(c1)NCCCC2; inactive
CO/N=C(/C(=O)N[C@@H]1C(=O)N2C(C(=O)O)=C(Cn3nnc(C)n3)CS[C@H]12)c1csc(N)n1; inactive
Brc1ccccc1-c1ccccc1; inactive
OC1(c2ccccc2)CCNCC1; inactive

// next item, outcome requested
Quick one: outcome of N=C(N)c1ccc(OCCCOc2ccc(C(=N)N)cc2)cc1 ?
inactive

* * *

Test: Cell Viability - MRC5 (AID 434);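 also: cells exposed to compound for 40 hours at 37 °C; potency reflects cytotoxicity seen as loss of intracellular ATP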
Conditions: MRC5 lung fibroblast viability, qHTS
Inconclusive results are not listed. Activity calls are given as the source filed them. Calls come from the whole dose curve.
Bench note: report the call from active, inactive

Examples from the recorded data:
Cc1cc(C(C)(C)C)c(O)c(C(C)(C)C)c1; inactive
O=C(Oc1ccccc1)c1ccccc1O; inactive
CC(C)(c1ccc(O)cc1)c1ccc(O)cc1; inactive

Given C1=CC2C3C=CC(C3)C2C1 (stereo not given) , state the outcome it received in this test.
inactive

Given OCc1c[nH]c2ccccc12 , state the outcome it received in this test.
inactive

Given Nc1c2ccccc2nc2ccccc12 , state the outcome it received in this test.
active

Given Brc1ccccc1-c1ccccc1 , state the outcome it received in this test.
inactive

Given Nc1ccc(O)cc1 , state the outcome it received in this test.
active

Given CC(C)C(C)(C)C(C)(C)C(C)(C)S , state the outcome it received in this test.
inactive

Given CC(C)(C)c1ccc(O)c(O)c1 , state the outcome it received in this test.
inactive

* * *

Assay: P-glycoprotein substrates identified in KB-8-5-11 adenocarcinoma cell line, qHTS therapeutic library screen (AID 1346987); also: nearly all actives have a fitted effect of over 65% in size
Settings: KB-8-5-11 (P-gp overexpressing) viability, CellTiter-Glo, 72 h; series mostly up to 44.5 µM
Inconclusive results are not listed. Calls of active or inactive are those of the source. The call rests on the fitted dose curve; in most records, active means well fitted inhibition curve with a large enough effect; inconclusive means small, poorly fitted or top-dose-only effect; inactive means flat fitted curve, though single readings scatter.
Bench note: report the call from active, inactive

Examples from the recorded data:
C[N+](C)(C)CCO; inactive
N[C@@H](Cc1cc(I)c(O)c(I)c1)C(=O)O; inactive

Given Oc1ccc(CCNCCCCCCNCCc2ccccc2)cc1O , state the outcome it received in this test.
inactive

Given Nc1c(NC/C=C\COc2cc(CN3CCCCC3)ccn2)c(=O)c1=O , state the outcome it received in this test.
inactive

Given Cc1cc2nc3ccc(=[N+](C)C)cc-3sc2cc1N , state the outcome it received in this test.
active

Given CC1(C)S[C@@H]2[C@H](NC(=O)C(c3ccccc3)S(=O)(=O)O)C(=O)N2[C@H]1C(=O)O (some centres not stated) , state the outcome it received in this test.
inactive

Given OCc1c[nH]c2ccccc12 , state the outcome it received in this test.
inactive

Given CN1CCC(=C2c3ccccc3CCc3cccnc32)CC1 , state the outcome it received in this test.
inactive

Given CN1C(CSCC(F)(F)F)Nc2cc(Cl)c(S(N)(=O)=O)cc2S1(=O)=O (configuration not stated) , state the outcome it received in this test.
inactive

Given CC(C)OC(=O)c1cc2c(OCC(O)CNC(C)(C)C)cccc2[nH]1 (configuration not stated) , state the outcome it received in this test.
inactive

Given CCCCCC[C@@H](CCC)C(=O)O , state the outcome it received in this test.
inactive

Given C1N2CN3CN1CN(C2)C3 , state the outcome it received in this test.
inactive

* * *

Molecular target: Protein phosphatase 1D (Homo sapiens)
Assay: Rhodamine-PBP qHTS Assay for Modulators of WT P53-Induced Phosphatase 1 (WIP1) (AID 1347425); also: % of control where 0% means no effect
Settings: recombinant WIP1, Rhodamine-PBP phosphate fluorescence, real-time; series mostly up to 57.5 µM
Inconclusive results are not listed. Calls of active or inactive are those of the source. The call rests on the fitted dose curve; in most records, active means well fitted curve in the direction sought with a large enough effect; inconclusive means small, poorly fitted or top-dose-only effect, or another doubt; inactive means no such curve, though single readings can be large or run the other way.
recorded_endpoint: activity change, negative = inhibition

CO[C@@H]1[C@@H](O[C@@H]2O[C@H](C)[C@@H](O[C@H]3C[C@@](C)(O)[C@@H](O)[C@H](C)O3)[C@H](N(C)C)[C@H]2O)[C@@H](CC=O)C[C@@H](C)[C@@H](O[C@@H]2CC[C@H](N(C)C)[C@@H](C)O2)/C=C/C=C/C[C@@H](C)OC(=O)C[C@H]1OC(C)=O; inactive
Nc1c(NC/C=C\COc2cc(CN3CCCCC3)ccn2)c(=O)c1=O; inactive
CCC(C(=O)OCCN1CCOC(c2ccccc2)C1C)c1ccccc1 (stereo not drawn); inactive

* * *

Tested on: OV90
Test: Primary qHTS to identify gynecologic anti-cancer compounds using libraries of approved drugs and bioactive compounds (AID 1345084); also: nearly all actives have a fitted effect of over 55% in size
Conditions: Gynecologic cancer cell panel viability, ATPlite luminescence, 48 h; series mostly up to 57.5 µM
Records with an inconclusive call do not appear. The source made the active and inactive calls. The call rests on the fitted dose curve; in most records, active means well fitted cell-killing curve with a large enough effect; inconclusive means small, poorly fitted or top-dose-only effect, or effect the other way; inactive means flat fitted curve, though single readings scatter.
Bench note: report the call from active, inactive

CCCCC(O)/C=C(C)/C=C/C=C/C(=O)N1CCCC1=O (centres undefined); inactive

Given Cc1nc(C2CCCCC2)c(-c2ccc(S(N)(=O)=O)c(F)c2)o1 , state the outcome it received in this test.
inactive

Given OCc1cccnc1 , state the outcome it received in this test.
inactive

Given CC[C@@H]([C@H](C)O)n1ncn(-c2ccc(N3CCN(c4ccc(OC[C@@H]5CO[C@@](Cn6cncn6)(c6ccc(F)cc6F)C5)cc4)CC3)cc2)c1=O , state the outcome it received in this test.
active

Given CC(C)(C)C(=O)OCOC(=O)C1N2C(=O)CC2S(=O)(=O)C1(C)C (centres undefined) , state the outcome it received in this test.
inactive

Given CCCCCC1Nc2cc(C(F)(F)F)c(S(N)(=O)=O)cc2S(=O)(=O)N1 (centres undefined) , state the outcome it received in this test.
inactive

Given COc1ccccc1N1CCN(CCN2C(=O)CC3(CCCC3)CC2=O)CC1 , state the outcome it received in this test.
inactive

Given Cc1cccc(OCC(O)CNC(C)(C)C)c1C (centres undefined) , state the outcome it received in this test.
inactive

Given Cc1ccc(C(C)OC(=O)C2(C)CCC(C(=O)O)C2(C)C)cc1 (centres undefined) , state the outcome it received in this test.
inactive

Given Nc1c[n+](N2CCOCC2)no1 , state the outcome it received in this test.
inactive

Given O=S(=O)(O)c1ccc2nc(-c3ccccc3)[nH]c2c1 , state the outcome it received in this test.
inactive

Given C[C@H]1NCc2cc(-c3ccc4c(=O)c(C(=O)O)cn(C5CC5)c4c3OC(F)F)ccc21 , state the outcome it received in this test.
inactive

Given CC(C)C(C)(C)C(C)(C)C(C)(C)S , state the outcome it received in this test.
inactive

Given COc1cc(NS(=O)(=O)c2ccc(N)cc2)nc(C)n1 , state the outcome it received in this test.
inactive
